B1: Protein S100-G, residues 1 to 79; numbered along this chain, P02633 (parent)
chain: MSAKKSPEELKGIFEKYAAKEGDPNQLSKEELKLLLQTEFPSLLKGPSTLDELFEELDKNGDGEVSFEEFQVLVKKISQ

# Variants of: B1
# test_summary: abundance fitness (aPCA) (normalised: wild type 0, dead -1); higher = more abundant; growth selection in yeast, the domain comes from the species named
# condition_set: Bos taurus
// map abundance fitness onto a label; ranges lower = under -0.1, middle = from -0.1 up to -0.04, upper = -0.04 and over

In [3]: df
Out[3]:
   sequence_change  class_name
0             F67Y       upper
1             N25L       upper
2              E9L      middle
3             Q71W       lower
4             G22F       lower
5             Y17A       lower
6             K16L       upper
7             I77N       upper
8             D23S       upper
9              E8N       lower

Problem: Please indicate the class for "F67N" based on its abundance fitness.
Solution: lower

Problem: Quick one: "E55G"
Solution: upper

Data origin, for the record: the Human Domainome abundance scans (Beltran et al. 2025)
